# target under test: T1, oligopeptide IFATYPSGHLDM (SEQ ID NO: 108)
# T1 construct: Synthetic peptide, part of Loop C of AQP3
# T1 peptide: IFATYPSGHLDM
# measurement description: ELISA on coated peptide
# Description: To determine the important amino acid residues of an epitope in Loop C involved in binding to specific AQP3 antibody clones, peptides of varying lengths were produced. The sequences of these peptides are shown in column 2 of Table 4. The various peptides and AQP3 antibody clones were subjected to ELISA binding analyses. […] The microtiter wells (Costar 2690) were coated with 50 μL of each peptide at 4° C. overnight. […]
Catalogue of binding signal (plate reader) readings, one per entry.
Reply with just the number.

• BC-B10 (IgG) (antibody, V domains shown, also called anti AQP3 antibody BC-B10) VH: QSVEESGGRLVTPGAPLTLTCTVSRFSLSSYAMTWVRQAPGKGLEWIGIINNDVISSTWYASWVKGRFTISKTSTTMELKMTSLTTEDTATYFCARGGTSGYDIWGPGTLVTVSS VL: AIKMTQTPSPVSAAVGGTVTINCQSSPSVYKNYLSWYQQKPGQPPKLLIYGASTLASGVPSRFKGSGSGTQFTLTISDVQCDDAATYYCAGGYIGSRDIFSFGGGTEVVVK = 3.88

Ask: Return value of binding signal (plate reader) for input SC-B6 (IgG) (antibody, V domains shown, also called anti AQP3 antibody SC-B6) VH: QSVKESGGRLVTPGAPLTLTCTVSGFSLNNYAMTWVRQAPGKGLEWIGIINNDGISSTWYASWVKGRFIISKTSTTVDLKMTSLTTEDTATYFCARGGTSGYDIWGPGTLVTVSL VL: AQGPTQTPSPVSAAVGGTVTINCQSSPSVYKNYLSWYQQKPGQPPKLLIYGASTLASGVPSRFKGSRSGTQFTLTISDVQCDDAATYYCAGGYIGSRDIFSFGGGTEVVVK , no commentary.
Result: 3.69

Ask: Return value of binding signal (plate reader) for input Antibody J (antibody, mouse IgG2a, kappa, V domains shown, also called anti AQP3 antibody J) VH: QVHLQQSGTELVKPGASVKLSCEASGYTFTSYWMHWVKQRPGQGLEWIGNINPSNGGTNYNEKFKSKATLTVDKSSSTAYMQLSSLTSEDSAVYYCARGGIYYGNYDYYAMDYWGQGTSVTVSS VL: DIVMTQAAPSVPVTPGESVSISCRSSKSLLHSNGNTYLYWFLQRPGQSPQLLIYRVSNLASGVPDRFSGSGSGTAFTLRISRVEAEDVGVYYCMQHLEYPFTFGGGTKLEIKR , no commentary.
Result: 0.594
